molecular target: T1, EGFR (UniProt P00533 25-1210, limits assumed); test: binding to EGFR positive cells (data not shown)
T1 construct: whole, on cells; also called EGFR positive cells; EGFR positive H292 cells
Metric: binding result

{"columns": ["Binder", "Measurement"],
 "data": [
  ["CD19 ECD N term mutant#3-EGFR Fn3 (designed binder, Fusion protein; also called construct #229; CD19-Fn3/EGFR) PEEPLVVKVEEGDTAALWCLKGTSDGPTQQLTWSRESPLKPFLKLSLGLPGMGVHMRPGAVSAVISNVSQQMGGFYLCQPGPPSEKAWQPGWTVNVEGSGELFRWNVSDLGGLGCGLKNRSSEGPSSPSGKLMSPKLYVWAKDRPEIWEGEPPCLPPRDSLNQSLSRDMTVAPGSTLWLSCGVPPDSVSRGPLSWTHVHPKGPKSLLSLELKDDRPARDMWVMGTSLILPRATAQDAGKYYCHRGNLTMSFHLEVVARPVKAHSDLRTGGWKGGGGSGGGGSGGGGSGGGGSVSDVPRDLEVVAATPTSLLISWFDYAVTYYRITYGETGGNSPVQEFTVPGWISTATISGLKPGVDYTITVYAVTDNSHWPFRSTPISTNYRTEIDKPPQHHHHHH", "binds"],
  ["CD19 ECD N term mutant#2-EGFR Fn3 (designed binder, Fusion protein; also called CD19-Fn3/EGFR) PEEPLVVKVEEGDTAVLPCLKGTSDGPTQQLTWSRESPLKPFLKYSLGVPGLGVHVRPDAISVVIRNVSQQMGGFYLCQPGPPSEKAWQPGWTVNVEGSGELFRWNVSDLGGLGCGLKNRSSEGPSSPSGKLMSPKLYVWAKDRPEIWEGEPPCLPPRDSLNQSLSQDLTMAPGSTLWLSCGVPPDSVSRGPLSWTHVHPKGPKSLLSLELKDDRPAREMIVDETGLLLPRATAQDAGKWYCSRGNVTTSYHLEITARPVKAHSDLRTGGWKGGGGSGGGGSGGGGSGGGGSVSDVPRDLEVVAATPTSLLISWFDYAVTYYRITYGETGGNSPVQEFTVPGWISTATISGLKPGVDYTITVYAVTDNSHWPFRSTPISTNYRTEIDKPPQHHHHHH", "binds"],
  ["CD19 ECD N term mutant#-EGFR Fn3 (designed binder, Fusion protein; also called construct #230; CD19-Fn3/EGFR) PEEPLVVKVEEGDTAALWCLKGTSDGPTQQLTWSRESPLKPFLKYSLGVPGMGVHVRPNAVSLVISNVSQQMGGFYLCQPGPPSEKAWQPGWTVNVEGSGELFRWNVSDLGGLGCGLKNRSSEGPSSPSGKLMSPKLYVWAKDRPEIWEGEPPCLPPRDSLNQSLSRDMTVAPGSTLWLSCGVPPDSVSRGPLSWTHVHPKGPKSLLSLELKDDRPARDMWVMETGLVLPRATAQDAGKWYCHRGNVTTSYHLEITARPVSAHTPLRTGGWKGGGGSGGGGSGGGGSGGGGSVSDVPRDLEVVAATPTSLLISWFDYAVTYYRITYGETGGNSPVQEFTVPGWISTATISGLKPGVDYTITVYAVTDNSHWPFRSTPISTNYRTEIDKPPQHHHHHH", "binds"]
]}
